Reference source: PubChem BioAssay AID1159580

Assay: chemical genetic growth profiling, strain panel (AID 1159580);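 note: tested at 20 µM; growth read once vehicle control cultures reached saturation at 30 °C; 1 = growth at the plate median or of vehicle wells; lower values mean less growth of the strain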
Details: S. cerevisiae deletion strains, growth OD, locus YAL021C, strain ccr4, stronger effect = lower value
Hit rate of the full screen: of about 5,500 compounds, about 2,000 (36%) were called active. Roughly 18% stayed inconclusive and do not appear here. The list shows a part of the results.
Endpoint name: normalized growth
API note: the answer field is a bare number with no unit suffix.

Problem: In one line, give reported normalized growth of the entry CNC(C)C(O)c1ccccc1 (stereo unspecified) .
Result: 1.02

Problem: Provide one value: measured normalized growth of C[C@]12CCC3c4ccc(OS(=O)(=O)O)cc4CCC3C1CC[C@H]2O (stereo partly specified)
Result: 0.986

Problem: Specify reported normalized growth for the compound shown: O=c1cc(-c2ccc(O)cc2)oc2cc(O[C@@H]3O[C@H](CO)[C@@H](O)[C@H](O)[C@H]3O)cc(O)c12
Result: 0.975

Problem: State its normalized growth for this compound: CCC1OC(=O)[C@H](C)C(=O)[C@H](C)[C@@H](OC2O[C@H](C)C[C@H](N(C)C)[C@H]2O)[C@](C)(OC)C2(CCCn3cnc(-c4cccnc4)c3)C[C@@H](C)C(=O)[C@H](C)[C@H]3N(C2)C(=O)O[C@]13C (stereo partly specified)
Result: 0.973

Problem: // fetch normalized growth given entry CC1O[C@@H](Oc2c(-c3ccc(O)c(O)c3)oc3cc(O)cc(O)c3c2=O)[C@H](O)[C@H](O)[C@H]1O (stereo partly specified)
Result: 1

Problem: Report normalized growth for COc1ccc(-c2cc(=O)c3c(O)cc(O[C@@H]4O[C@H](CO[C@H]5O[C@H](C)[C@@H](O)[C@H](O)[C@@H]5O)[C@@H](O)[C@H](O)[C@H]4O)cc3o2)cc1O
Result: 1.01
